The next entries give measured Ki for MMP-9 (Homo sapiens).
reported.metric: Ki (nM)

A = CNC(=O)C(CCC(=O)NCCOCCOCCOCCOCCOCCOCCOCCOCCOCCOCCOCCOCCC(=O)NCc1ccc(I)cc1)NC(=O)C(CC(=O)NO)CC(C)C (centres unmarked) [Compound 12]
B = CNC(=O)[C@H](Cc1ccc(I)cc1)NC(=O)[C@@H](CC(=O)NO)CC(C)C [Compound 3]
query: Of A and B , which one carries the higher reported Ki? Indicate your choice by writing its label.
result: A
(A: 7.15 nM, B: 0.11 nM)

====

The next entries give measured Ki for MMP-12 (Homo sapiens).
reported.metric: Ki (nM)

a = CNC(=O)C(CCC(=O)NCCOCCOCCOCCOCCOCCOCCOCCOCCOCCOCCOCCOCCC(=O)NCc1ccc(I)cc1)NC(=O)CC(CC(C)C)C(=O)NO (centres unmarked)
b = CC(C)CC(CC(=O)NC(Cc1c[nH]c2ccccc12)C(=O)NCCOCCOCCOCCOCCOCCOCCOCCOCCOCCOCCOCCOCCC(=O)NCc1ccc(I)cc1)C(=O)NO (centres unmarked)
query: # return whichever of a and b has the smaller Ki Indicate your choice by writing its label.
result: b
